- Assay System: UniProtKB P15145
- Sequence (P15145 whole entry): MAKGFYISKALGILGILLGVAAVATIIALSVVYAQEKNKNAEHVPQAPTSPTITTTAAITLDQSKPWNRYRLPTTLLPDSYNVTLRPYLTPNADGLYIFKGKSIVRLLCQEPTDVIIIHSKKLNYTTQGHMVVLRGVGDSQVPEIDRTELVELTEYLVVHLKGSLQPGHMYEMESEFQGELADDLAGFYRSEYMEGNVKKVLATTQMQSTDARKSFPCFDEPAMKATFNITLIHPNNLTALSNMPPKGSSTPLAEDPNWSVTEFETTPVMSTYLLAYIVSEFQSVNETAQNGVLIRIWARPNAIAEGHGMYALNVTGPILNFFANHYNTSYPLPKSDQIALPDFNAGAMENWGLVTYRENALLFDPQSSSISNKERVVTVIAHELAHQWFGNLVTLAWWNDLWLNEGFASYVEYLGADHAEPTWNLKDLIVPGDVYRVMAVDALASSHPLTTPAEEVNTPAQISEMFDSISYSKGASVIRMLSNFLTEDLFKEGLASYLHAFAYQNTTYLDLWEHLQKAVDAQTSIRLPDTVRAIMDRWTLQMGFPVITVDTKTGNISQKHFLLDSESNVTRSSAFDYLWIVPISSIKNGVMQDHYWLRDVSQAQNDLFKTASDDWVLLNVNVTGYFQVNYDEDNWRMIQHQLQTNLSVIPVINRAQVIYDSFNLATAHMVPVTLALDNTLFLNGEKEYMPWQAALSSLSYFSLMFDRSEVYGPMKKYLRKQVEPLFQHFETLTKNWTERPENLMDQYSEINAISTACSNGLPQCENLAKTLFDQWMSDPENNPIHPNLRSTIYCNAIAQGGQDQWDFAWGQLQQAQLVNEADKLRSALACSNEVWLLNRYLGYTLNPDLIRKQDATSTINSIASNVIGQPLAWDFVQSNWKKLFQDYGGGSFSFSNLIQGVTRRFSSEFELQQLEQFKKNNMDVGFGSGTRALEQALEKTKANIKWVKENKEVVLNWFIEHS
pIC50: −log10 of the molar value.
Note to self: these compounds have pIC50 reported for UniProtKB P15145 in various publications.
Measurement Name: pIC50

# example entries with known answers
The compound N[C@@H](CS)C(=O)NC[C@H](N)[C@@H](O)c1ccc([N+](=O)[O-])cc1 on UniProtKB P15145: pIC50 was 4.91

Observed pIC50, UniProtKB P15145, CC(C)C[C@H](NC(=O)NCc1cn(Cc2ccc(C#N)cc2)nn1)C(=O)NO : 5.85

Readout pIC50 for CC(C)C[C@H](NC(=O)[C@@H](O)CN)C(=O)NC[C@H](N)[C@@H](O)c1ccc([N+](=O)[O-])cc1 , test system UniProtKB P15145, was 4.71

Reported UniProtKB P15145 pIC50 for item CC(C)C[C@H](NC(=O)NCC(=O)O)C(=O)NC[C@H](N)Cc1ccccc1 was 2.49

I. C[C@H](NC(=O)N[C@@H](CCCCNC(=O)OCc1ccccc1)C(=O)NO)C(=O)NO
II. CC(C)C[C@H](NC(=O)NCc1cn(C(c2ccccc2)c2ccccc2)nn1)C(=O)NO
III. O=C(CN1C(=O)C2(OCCO2)c2cc(Cl)ccc21)NO
Problem: Which order do these items take when sorted by rising pIC50? List them. Output spec: a listing of the labels in the requested order.
Result: I, II, III

1. CC(C)C[C@H](NC(=O)C1(N)CCN(c2ncnc3[nH]ccc23)CC1)C(=O)NO
2. O=C(/C=C/c1ccccc1)N[C@H](CC(=O)Nc1ccccc1)C(=O)O
Problem: Would you mind telling me which has the lower recorded pIC50 between 1 and 2 ? Mark your answer with the label of the selected entry.
Result: 2
(2: 3.63, 1: 4.49)
